Target: Glucose transporter (Leishmania mexicana)
Test: ST_JUDE_LEISH: Cytotoxicity at 2uM final concentration against transgenic Leishmania Mexicana promastigotes LmGT2 that are glucose transport deficient and complemented with the L. Mexicana glucose transporter 2. Activity is measured by DNA content using SYBR green in vitro
Assay type: functional
I'd appreciate it if you could supply inhibition values for the items below.
Numbers only, in %.

Cc1cccc2nc(-c3cccc(-c4ccc(NC(=O)Nc5ccc(F)c(F)c5F)cc4)c3)[nH]c12 : 3.22
COc1ccc2ncc(F)c(CCN3CC[C@H](NCc4cc5c(s4)CCCN5)[C@H](O)C3)c2n1 : 2.43
Clc1ccc2c(NCc3ccc4c(c3)OCO4)ccnc2c1 : 4.15
CCCCN(Cc1cc(Cl)c(OC)c(OC)c1)c1ccc(C(O)(C(F)(F)F)C(F)(F)F)cc1 : -0.33

Data request, read-out inhibition, for "CO/C(=C\C=C\c1cc2cc(Cl)c(Cl)cc2[nH]1)C(=O)NCCCN1CCN(c2cccc(O)c2)CC1"
11.8

====

Provide the reported inhibition of each item.
Target: Solute carrier family 2, facilitated glucose transporter member 1 (Homo sapiens)
Test: ST_JUDE_LEISH: Cytotoxicity at 2uM final concentration against transgenic Leishmania Mexicana promastigotes LmGLUT1 that are glucose transport deficient and complemented with the human glucose transporter GLUT1. Activity is measured by DNA content using SYBR green in vitro
Type: functional
One number for each entry, in %.

N=C(N)NCCN(Cc1ccccc1)c1ccccc1 : 2.42
Cc1n[nH]c(C)c1C1CCN(CC2CCC(NC(=O)/C=C/c3ccc(Cl)c(Cl)c3)CC2)CC1 (stereo not given) : 4.43

For every item below, please supply its inhibition.
1. CCc1c(CCNCCCCCCNCCc2ccc([N+](=O)[O-])cc2)ccc(OC)c1OC
2. O=C(O)c1ccc2c(c1)N(C(=O)CNCc1ccc(F)cc1)CC(=O)N2CCCc1ccccc1
3. COc1cccc(CN2Cc3ccccc3OC3(CCN(Cc4c[nH]c5cnccc45)CC3)C2)c1

1. 12.1
2. -4.22
3. -0.87

====

Provide the reported inhibition of each item.
Target: Glucose transporter (Leishmania mexicana) (UniProt O61059)
Assay: ST_JUDE_LEISH: Cytotoxicity at 2uM final concentration against transgenic Leishmania Mexicana promastigotes LmGT2 that are glucose transport deficient and complemented with the L. Mexicana glucose transporter 2. Activity is measured by DNA content using SYBR green in vitro
Format: functional
One number for each entry, in %.

COC(=O)c1ccc(-c2ccc(C(=O)NCC3CCN(c4nc(N)c5cc(OC)c(OC)cc5n4)CC3)cc2)cc1 : 2.11
Cc1ccc2nc(C)cc(N/N=C/c3ccccc3[N+](=O)[O-])c2c1 : 7.96
COc1ccc(OCCCN2CCN(CC(c3ccc(F)cc3)N3CCN(C(C)C)CC3)CC2)c2ccccc12 (centres undefined) : 5.07
Cc1nc2nc(N)nc(N)c2c(C)c1Cc1cccs1 : 2.44
CN1CCN(c2ccnc3ccc(NC(=O)Cc4ccc(Br)c5ccccc45)cc23)CC1 : 2.02

Hi, could you look up inhibition for each item in my list?
1. CCOC(=O)CCCCOc1c(OC)cc(Cc2cnc(N)nc2N)cc1OC
2. COc1cc(F)c2ncc(F)c(CCN3C[C@H](CNCc4ccc5c(n4)NC(=O)CS5)[C@H](O)C3)c2c1
3. O=[N+]([O-])c1ccc(Nc2nc(N/N=C/c3cccc(O)c3)nc(N3CCCC3)n2)cc1
4. Cc1ccc(C(C#N)c2ccc3c(C(F)(F)F)cc(C(F)(F)F)nc3n2)cc1 (centres undefined)

1: 6.09; 2: -0.04; 3: 1.31; 4: 4.34

====

Task for the reader: assign each of the following molecules its reported inhibition.
Biological target: Glucose transporter (Leishmania mexicana)
Assay: ST_JUDE_LEISH: Cytotoxicity at 2uM final concentration against transgenic Leishmania Mexicana promastigotes LmGT2 that are glucose transport deficient and complemented with the L. Mexicana glucose transporter 2. Activity is measured by DNA content using SYBR green in vitro
Type: functional
Numbers only, in %.

Would you please look over these solved cases?
c1ccc(CNCc2cccc(-c3ccc(-c4nc5ccccc5[nH]4)cc3)c2)cc1 : 7.51
CC1CCCCN1CCCNC(=O)c1cccc(-c2cc3cc(Cl)c(Cl)cc3[nH]2)c1 (centres undefined) : 4.99
O=C(Nc1cccnc1)c1ccc(-c2cc3ccncc3cc2OC2CCNCC2)s1 : 2.16
COc1ccc(CCN2CCC(NCc3cccc(N(C)C)c3)CC2)cc1 : -1.51
CCN(CC(C)O)C(=O)c1ccc(-c2ccc(-c3nc4cccc(C)c4[nH]3)cc2)cc1 (centres undefined) : 0.55

Each molecule below has a recorded value; state its inhibition.
1. O=c1cnc2ccc(F)cc2n1CCN1CCC(NCc2cc(-c3ccccc3)cs2)CC1
2. CN(C)C(=O)CCCn1c(CNCCCNc2cc(=O)c3ccccc3[nH]2)cc2c(Cl)cc(Cl)cc21
3. Cc1[nH]c(C)c(-c2ccc(-c3ccccc3F)nc2)c(=O)c1Cl
4. Cc1nc(N2CCC(C)CC2)c2c3c(sc2n1)CCCC3
5. CN(Cc1cc(C(F)(F)F)cc(C(F)(F)F)c1)C(=O)C1CNCC1c1ccc(F)cc1 (centres undefined)
6. CC1CC1C(=O)NC1CCN(CC2(c3ccccc3)CCCCC2)CC1 (centres undefined)

1: 48.5; 2: 2; 3: 1.16; 4: 0.47; 5: 3.05; 6: -0.67

====

Molecular target: Glucose transporter (Leishmania mexicana) (UniProt O61059)
Test: ST_JUDE_LEISH: Cytotoxicity at 2uM final concentration against transgenic Leishmania Mexicana promastigotes LmGT2 that are glucose transport deficient and complemented with the L. Mexicana glucose transporter 2. Activity is measured by DNA content using SYBR green in vitro
Format: functional
quantity kind: inhibition
Include the unit right after the number.

Known inhibition results, listed for orientation:
CC(=O)Nc1ccc(CN2CCc3ccc(NS(=O)(=O)c4cccc(OCc5ccc(Cl)cc5)c4)cc3CC2)s1 : 0.54%
Cc1ccc(C(C)C)c(Oc2ccc3nc(N)nc(N)c3c2)c1 : 5.01%
Cc1csc2nc(C(C)c3ccc(NC(=O)c4cccs4)cc3)oc(=O)c12 (stereo not given) : -0.38%
O=c1ccc2ccc(O)c(O)c2o1 : 4.39%
N#Cc1cncc(-c2nc3c(N4CCC(Cc5ccccc5)CC4)cccc3n2CCNCc2ccccc2)c1 : 6.16%

Give me inhibition for each of these molecules, listed below.
1. N#Cc1ccc(C=Cc2nccc3c2[nH]c2ccccc23)cc1
2. COc1cc(NC(=O)c2ccc(-c3ccccc3)cc2)ccc1OCCCN1CCC(c2ccccc2)CC1
3. O=C1NC(C(=O)Nc2ccccc2)C(c2ccccc2)S1 (stereo not given)
4. COc1cc2c(cc1NS(=O)(=O)c1ccc(OCc3ccc(Br)cc3)cc1)CCN(C1CCC1)CC2

1. 9.13%
2. 2.91%
3. -0.52%
4. -0.51%

Requested read-out: inhibition. Entry: COc1ccc2ncc(C#N)c(CCN3C4CCC3CC(NCc3ccc5c(n3)NC(=O)CS5)C4)c2c1 (stereo not given)
1.45%

====

Biological target: Hexose transporter 1 (Plasmodium falciparum) (UniProt O97467)
Assay: ST_JUDE_LEISH: Cytotoxicity at 2uM final concentration against transgenic Leishmania Mexicana promastigotes LmPfHT that are glucose transport deficient and complemented with the Plasmodium falciparum hexose transporter. Activity is measured by DNA content using SYBR green in vitro
Format: functional
quantity kind: inhibition (%)
Numbers only, in %.

Example entries begin here.
CN1CCc2cc(I)c(O)cc2C1Cc1ccccc1Cl (centres undefined) : 3.88
Cc1cccc2nc(-c3cccc(-c4ccc(CN5CCN(CCO)CC5)cc4)c3)[nH]c12 : 0.97
N#CCCN1CCN(Cc2ccc(-c3ccc(-c4nc5cc(F)ccc5[nH]4)s3)cc2)CC1 : 0.84
O=c1[nH]c2c(cc1CNC1CCCCC1)c(-c1ccc(F)cc1)nn2-c1ccccc1 : -1.47
CC(C)c1sc(N2CCN(C)CC2)nc1C(=O)Nc1ccc(F)cc1C(F)(F)F : 6.04
CCCCNC(=O)[C@@H](NC(=O)c1ccc(O)c(-c2ccc(Cl)c(Cl)c2)c1)C(C)C : 4.37

Look at each compound and report its inhibition.
1. O=S(=O)(Nc1cc2c(cc1OCc1ccccc1)CCN(C1CCC1)CC2)c1ccc(-c2ccc(Cl)cc2)cc1
2. N=C(NCc1ccc(O)cc1)Nc1nc(-c2ccc(OCCCn3ccnc3)cc2)cs1
3. O=C(Nc1cccc(-c2nn3ncccc3c2-c2ccnc(Nc3ccccc3)n2)c1)c1c(F)cccc1F

[2.61, 0.11, 11]

====

Molecular target: Solute carrier family 2, facilitated glucose transporter member 1 (Homo sapiens) (UniProt P11166)
Sequence (P11166 whole entry): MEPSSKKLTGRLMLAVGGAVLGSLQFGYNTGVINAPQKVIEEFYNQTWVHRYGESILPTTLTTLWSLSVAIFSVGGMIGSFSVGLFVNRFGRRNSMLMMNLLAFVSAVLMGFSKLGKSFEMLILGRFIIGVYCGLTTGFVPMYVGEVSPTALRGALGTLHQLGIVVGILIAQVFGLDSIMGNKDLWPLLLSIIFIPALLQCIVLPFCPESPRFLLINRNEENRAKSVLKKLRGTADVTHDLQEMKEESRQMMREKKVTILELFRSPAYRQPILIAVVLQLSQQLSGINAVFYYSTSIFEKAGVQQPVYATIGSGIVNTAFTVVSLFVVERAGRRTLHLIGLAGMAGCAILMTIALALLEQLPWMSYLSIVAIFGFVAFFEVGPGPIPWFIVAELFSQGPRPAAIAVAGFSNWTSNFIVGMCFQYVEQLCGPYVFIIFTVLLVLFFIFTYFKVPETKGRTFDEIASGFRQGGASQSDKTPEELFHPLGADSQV
Experiment: ST_JUDE_LEISH: Cytotoxicity at 2uM final concentration against transgenic Leishmania Mexicana promastigotes LmGLUT1 that are glucose transport deficient and complemented with the human glucose transporter GLUT1. Activity is measured by DNA content using SYBR green in vitro
Format: functional
quantity kind: inhibition (%)
One number for each entry, in %.

Some solved cases for reference:
CCNc1cc(C(=O)N[C@@H](Cc2ccccc2)[C@H](O)CNC2(CC(C)C)CC2)cc(N2CCCCS2(=O)=O)c1 : -1.54
CCN(CC)CCCN(C(=O)c1cc2c(C)nn(-c3ccccc3)c2s1)c1nc(-c2ccc(OC)cc2)cs1 : 10.5

For every listed record, write down its inhibition.
1. CCCCn1c(Sc2ccc(C#N)c([N+](=O)[O-])c2)nnc1-c1cc(OC)cc(OC)c1
2. Cc1noc(C)c1-c1cccc(CNCc2ccc(-c3cccc(-c4nc5cc(C(F)(F)F)ccc5[nH]4)c3)cc2)c1

[0.5, -0.48]
